B1: MGC27345 (parent)
chain: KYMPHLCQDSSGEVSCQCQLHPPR

Variants of: B1
Experiment: protein stability index of a GFP-peptide fusion (GPS, HEK-293T) (PSI 1-6); higher = more stable;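 note: lentivirally expressed fusions sorted by FACS into six bins by GFP to DsRed ratio, PSI derived from sequencing read proportions per bin multiplied by bin number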
Settings: c terminus: a fixed tail appended
parameter measured: protein stability index

D9F
2.47
P23Q
2.29
V14C
2.94
C7M
2.11
L20A
2.37
Q8D
2.6

Reference source: the supplement of paper PMC10567573
